Molecular target: HLA-B*18:01
Experiment: IEDB peptide-MHC binding, purified MHC/competitive/radioactivity; filed as Kd, often an IC50 or EC50 that approximates it; bounds were set here for any values at or beyond the usual limits of such assays
Conditions: source organism: Mammarenavirus brazilense
measure name: Kd

{"ordered residues": "PEDQGNPIVL", "val": "≥ 39.3 µM"}

---

Readings of pKd for the listed sequences
Biological target: HLA-A*02:03
Assay: IEDB peptide-MHC binding, purified MHC/competitive/radioactivity; filed as Kd, often an IC50 or EC50 that approximates it; bounds were set here for any values at or beyond the usual limits of such assays
Settings: source organism: SARS coronavirus Tor2
pKd: −log10 of the molar value.

{"ordered residues": "LVFLWLLWPV", "system tested": "HLA-A*02:03", "pKd": 8.71}
{"ordered residues": "ALLFLMSFT", "system tested": "HLA-A*02:03", "pKd": 5.70}
{"ordered residues": "KLLIVLTCI", "system tested": "HLA-A*02:03", "pKd": 5.71}
{"ordered residues": "WLLWPVTLA", "system tested": "HLA-A*02:03", "pKd": 8.92}

---

Target: HLA-A*02:16
Assay: IEDB peptide-MHC binding, purified MHC/direct/fluorescence; filed as Kd, often an IC50 or EC50 that approximates it; bounds were set here for any values at or beyond the usual limits of such assays
Conditions: source organism: Cryptosporidium parvum Iowa II

{"ordered residues": "MSQMPPHPY", "system tested": "HLA-A*02:16", "Kd": "≥ 20 µM"}

---

Target: HLA-A*11:01
Test: IEDB peptide-MHC binding, purified MHC/direct/fluorescence; filed as Kd, often an IC50 or EC50 that approximates it; bounds were set here for any values at or beyond the usual limits of such assays
Details: source organism: Escherichia coli O157:H7
Readings of Kd for the listed sequences
measure name: Kd

{"ordered residues": "LPPERRQPF", "measure name": "Kd", "val": "≥ 20 µM"}
{"ordered residues": "RRNDVARIF", "measure name": "Kd", "val": "≥ 20 µM"}

---

Target: HLA-A*26:03
Experiment: IEDB peptide-MHC binding, purified MHC/direct/fluorescence; filed as Kd, often an IC50 or EC50 that approximates it; bounds were set here for any values at or beyond the usual limits of such assays
Conditions: source organism: Lyssavirus rabies
pKd: −log10 of the molar value.

{"ordered residues": "RQMKSGGRF", "pKd": "≤ 4.70"}

---

Target: HLA-A*02:11
Assay: IEDB peptide-MHC binding, purified MHC/competitive/fluorescence; filed as Kd, often an IC50 or EC50 that approximates it; bounds were set here for any values at or beyond the usual limits of such assays
Settings: source organism: Campylobacter jejuni subsp. jejuni NCTC 11168 = ATCC 700819
measure name: Kd

{"ordered residues": "KGMKIQHFK", "measure name": "Kd", "val": "≥ 20 µM"}

---

Target: HLA-A*02:11
Test: IEDB peptide-MHC binding, purified MHC/direct/fluorescence; filed as Kd, often an IC50 or EC50 that approximates it; bounds were set here for any values at or beyond the usual limits of such assays
Details: source organism: Rickettsia sibirica 246
pKd: −log10 of the molar value.

{"ordered residues": "APVESMALF", "pKd": "≤ 4.70"}

---

Biological target: HLA-A*69:01
Assay: IEDB peptide-MHC binding, purified MHC/direct/fluorescence; filed as Kd, often an IC50 or EC50 that approximates it; bounds were set here for any values at or beyond the usual limits of such assays
Conditions: source organism: Homo sapiens

{"ordered residues": "EVIPYTPAM", "Kd, nM": 7.17}

---

Target: HLA-B*83:01
Test: IEDB peptide-MHC binding, purified MHC/competitive/fluorescence; filed as Kd, often an IC50 or EC50 that approximates it; bounds were set here for any values at or beyond the usual limits of such assays
Details: source organism: Orthohantavirus andesense

{"ordered residues": "LEEDIQHFL", "Kd": "≥ 5 µM"}

---

Target: HLA-B*83:01
Test: IEDB peptide-MHC binding, purified MHC/competitive/fluorescence; filed as Kd, often an IC50 or EC50 that approximates it; bounds were set here for any values at or beyond the usual limits of such assays
Conditions: source organism: Giardia lamblia ATCC 50803
pKd: −log10 of the molar value.

{"ordered residues": "YTFFFTQYF", "system tested": "HLA-B*83:01", "pKd": "≤ 5.30"}

---

Readings of Kd for the listed sequences
Biological target: HLA-B*27:05
Assay: IEDB peptide-MHC binding, purified MHC/direct/fluorescence; filed as Kd, often an IC50 or EC50 that approximates it; bounds were set here for any values at or beyond the usual limits of such assays
Conditions: source organism: Campylobacter jejuni RM1221
measure name: Kd

{"ordered residues": "AKYEICLEK", "val": "≥ 20 µM"}
{"ordered residues": "VQKVNPAPK", "val": "≥ 10 µM"}

---

Target: HLA-A*01:01
Test: IEDB peptide-MHC binding, purified MHC/direct/fluorescence; filed as Kd, often an IC50 or EC50 that approximates it; bounds were set here for any values at or beyond the usual limits of such assays
Details: source organism: Vibrio cholerae
pKd: −log10 of the molar value.
measure name: pKd

{"ordered residues": "WAGIWGGKL", "val": "≤ 4.70"}
{"ordered residues": "VVYKEAKIK", "val": "≤ 4.70"}
{"ordered residues": "ALYWALMES", "val": "≤ 4.70"}

---

Target: HLA-B*83:01
Test: IEDB peptide-MHC binding, purified MHC/competitive/fluorescence; filed as Kd, often an IC50 or EC50 that approximates it; bounds were set here for any values at or beyond the usual limits of such assays
Settings: source organism: human gammaherpesvirus 4
pKd: −log10 of the molar value.
measure name: pKd

{"ordered residues": "WEMRAGREI", "system tested": "HLA-B*83:01", "measure name": "pKd", "val": "≤ 5.30"}

---

Target: HLA-A*01:01
Experiment: IEDB peptide-MHC binding, purified MHC/competitive/fluorescence; filed as Kd, often an IC50 or EC50 that approximates it; bounds were set here for any values at or beyond the usual limits of such assays
Details: source organism: Bacillus cereus G9241
measure name: Kd (nM)

{"ordered residues": "ITDITKYLY", "unit of measure": "nM", "val": 2.1}

---

Target: HLA-B*51:01
Experiment: IEDB peptide-MHC binding, purified MHC/direct/fluorescence; filed as Kd, often an IC50 or EC50 that approximates it; bounds were set here for any values at or beyond the usual limits of such assays
Settings: source organism: Rickettsia sibirica 246
pKd: −log10 of the molar value.

{"ordered residues": "APVESMALF", "system tested": "HLA-B*51:01", "pKd": "≤ 4.70"}

---

Molecular target: HLA-C*04:01
Assay: IEDB peptide-MHC binding, purified MHC/competitive/fluorescence; filed as Kd, often an IC50 or EC50 that approximates it; bounds were set here for any values at or beyond the usual limits of such assays
Details: source organism: Helicobacter pylori 26695

{"ordered residues": "FPIQDFPII", "Kd": "≥ 5 µM"}

---

Target: HLA-A*02:06
Assay: IEDB peptide-MHC binding, purified MHC/competitive/radioactivity; filed as Kd, often an IC50 or EC50 that approximates it; bounds were set here for any values at or beyond the usual limits of such assays
Conditions: source organism: Lymphocytic choriomeningitis virus (strain Armstrong)

{"ordered residues": "SNSEDLLKAV", "Kd": "≥ 10 µM"}

---

Target: HLA-B*58:01
Assay: IEDB peptide-MHC binding, purified MHC/direct/fluorescence; filed as Kd, often an IC50 or EC50 that approximates it; bounds were set here for any values at or beyond the usual limits of such assays
Details: source organism: SARS-CoV1
pKd: −log10 of the molar value.
measure name: pKd

{"ordered residues": "KTTFKPNTW", "val": 6.80}

---

Target: HLA-A*68:02
Experiment: IEDB peptide-MHC binding, purified MHC/direct/fluorescence; filed as Kd, often an IC50 or EC50 that approximates it; bounds were set here for any values at or beyond the usual limits of such assays
Details: source organism: Lyssavirus rabies
pKd: −log10 of the molar value.

{"ordered residues": "RQMKSGGRF", "pKd": "≤ 4.70"}

---

Biological target: HLA-A*33:01
Test: IEDB peptide-MHC binding, purified MHC/competitive/radioactivity; filed as Kd, often an IC50 or EC50 that approximates it; bounds were set here for any values at or beyond the usual limits of such assays
Conditions: source organism: Mammarenavirus brazilense
pKd: −log10 of the molar value.

{"ordered residues": "SSQRDTILK", "system tested": "HLA-A*33:01", "pKd": "≤ 4.62"}

---

Molecular target: HLA-B*08:01
Assay: IEDB peptide-MHC binding, purified MHC/competitive/fluorescence; filed as Kd, often an IC50 or EC50 that approximates it; bounds were set here for any values at or beyond the usual limits of such assays
Settings: source organism: Influenza A virus (A/Harbin/1/1988(H1N2))

{"ordered residues": "IAPWYAFAL", "Kd (µM)": 7.56}
